Target: T1, ヒトTFPI (human tissue factor pathway inhibitor; American Diagnostica) (human, UniProt P10646 29-304, limits assumed)
T1 construct: Coated on plates (ELISA) or amine-coupled to a CM5 chip (Biacore); also called h-TFPI; hTFPI
T1 sequence (looked up): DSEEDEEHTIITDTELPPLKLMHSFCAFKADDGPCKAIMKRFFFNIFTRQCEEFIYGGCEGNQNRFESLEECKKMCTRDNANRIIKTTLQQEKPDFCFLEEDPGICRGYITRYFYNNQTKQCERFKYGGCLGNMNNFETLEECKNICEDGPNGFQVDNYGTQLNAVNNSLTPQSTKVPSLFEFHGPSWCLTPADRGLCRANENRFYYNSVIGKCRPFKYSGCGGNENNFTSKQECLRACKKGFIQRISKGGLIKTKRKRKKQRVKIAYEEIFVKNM
Assay: ELISA, Fab in bacterial lysate on coated human TFPI
parameter: binding result

TP-2A8 (Fab, V domains shown, HuCAL Gold human Fab from E. coli TG1; also called Fab-2A8; TP-2A8-Fab) VH: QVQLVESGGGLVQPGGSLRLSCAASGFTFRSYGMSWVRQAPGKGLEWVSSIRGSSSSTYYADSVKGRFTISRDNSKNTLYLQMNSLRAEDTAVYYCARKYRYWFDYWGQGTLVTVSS VL: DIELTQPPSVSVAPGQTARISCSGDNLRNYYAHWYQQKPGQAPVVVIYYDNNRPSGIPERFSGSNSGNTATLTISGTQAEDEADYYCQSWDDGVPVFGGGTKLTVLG    binds
TP-3C1 (Fab, V domains shown, HuCAL Gold human Fab from E. coli TG1; Shares its VL entry with TP-2G9 and its VH entry with TP-3F2, as the legends print it) VH: QVQLVESGGGLVQPGGSLRLSCAASGFTFSSYSMHWVRQAPGKGLEWVSGISYSSSFTYYADSVKGRFTISRDNSKNTLYLQMNSLRAEDTAVYYCARALGGGVDYWGQGTLVTVSS VL: DIALTQPASVSGSPGQSITISCTGTSSDLGGFNTVSWYQQHPGKAPKLMIYSVSSRPSGVSNRFSGSKSGNTASLTISGLQAEDEADYYCQSYDLNNLVFGGGTKLTVLG    binds
TP-3A2 (Fab, V domains shown, HuCAL Gold human Fab from E. coli TG1) VH: QVQLVESGGGLVQPGGSLRLSCAASGFTFSNYYLSWVRQAPGKGLEWVSGISYNGSSTNYADSVKGRFTISRDNSKNTLYLQMNSLRAEDTAVYYCARMWRYSLGADSWGQGTLVTVSS VL: DIELTQPPSVSVAPGQTARISCSGDNIGSRYAYWYQQKPGQAPVVVIYDDSDRPSGIPERFSGSNSGNTATLTISGTQAEDEADYYCAAYTFYARTVFGGGTKLTVLG    binds
